assay: Chemical stability in aqueous solutions, degradation followed by HPLC; assay type: physicochemical; conditions: aqueous acetonitrile solution in HPLC vials, pH 6.7, 1:1 acetonitrile:water, 21 °C, pH 6.7; extrapolated from plots of peak area versus time; read-out: Half-life (t1/2, h) ACN:Water, 1:1 (converted)
Items are presented alongside their recorded half-life at 200 μg ml^–1.
# output: bare number, implied unit h

• CC1=C[C@H](O/C=C2\Cc3c([nH]c4ccccc34)C2=O)N(C(=O)OC(C)(C)C)C1=O (racemic) [rac-6] = 528
• CC1=C[C@H](O/C=C2/C(=O)O[C@H]3c4ccccc4C[C@@H]23)N(C(=O)OC(C)(C)C)C1=O (racemic) [rac-2] = 140
• CC1=C[C@H](Oc2ccc(Br)cc2)NC1=O (racemic) [rac-7] = 17

IN: # input compound: CC1=C[C@H](O/C=C2/C(=O)O[C@@H]3c4ccccc4C[C@H]23)NC1=O (racemic) [rac-3] ; wanted: its half-life at 200 μg ml^–1
OUT: 3.8

IN: // returns reported half-life at 200 μg ml^–1 for input CC1=CC(C2Cc3c(n(C)c4ccccc34)C2=O)NC1=O (racemic) [rac-9]
OUT: 2900

The measurements presented in this section are drawn from paper PMC5913603.
